# EXPERIMENTAL_TARGET: Peroxisome proliferator-activated receptor gamma (Homo sapiens, UniProt P37231)
# Sequence (P37231 whole entry): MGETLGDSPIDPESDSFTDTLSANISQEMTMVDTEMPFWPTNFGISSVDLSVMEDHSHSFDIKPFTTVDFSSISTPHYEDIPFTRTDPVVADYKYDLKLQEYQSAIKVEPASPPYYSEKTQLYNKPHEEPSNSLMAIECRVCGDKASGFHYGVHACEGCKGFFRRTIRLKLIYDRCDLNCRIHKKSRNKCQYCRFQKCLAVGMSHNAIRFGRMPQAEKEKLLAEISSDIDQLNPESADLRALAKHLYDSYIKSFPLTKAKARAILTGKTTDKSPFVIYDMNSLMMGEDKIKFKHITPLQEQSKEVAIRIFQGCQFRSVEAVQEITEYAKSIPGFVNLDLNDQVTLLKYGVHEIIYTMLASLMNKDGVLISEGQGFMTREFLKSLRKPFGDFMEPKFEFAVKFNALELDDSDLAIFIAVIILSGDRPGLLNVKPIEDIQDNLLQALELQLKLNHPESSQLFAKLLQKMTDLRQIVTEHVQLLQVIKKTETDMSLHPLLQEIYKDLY
# METHOD_DESCRIPTION: Inhibition of human PPAR-gamma
MEASUREMENT_NAME: IC50 (µM)
Report as a plain number; the unit µM is understood.

I'd like to know its IC50. The molecule in question is CCn1c(CCCc2ccc(-c3ccc(NS(=O)(=O)c4ccccc4)cn3)cc2)nn(Cc2ccc(C(C)(C)C)cc2)c1=O
15

---

# EXPERIMENTAL_TARGET: Peroxisome proliferator-activated receptor alpha (Homo sapiens, UniProt Q07869)
# Sequence (Q07869 whole entry): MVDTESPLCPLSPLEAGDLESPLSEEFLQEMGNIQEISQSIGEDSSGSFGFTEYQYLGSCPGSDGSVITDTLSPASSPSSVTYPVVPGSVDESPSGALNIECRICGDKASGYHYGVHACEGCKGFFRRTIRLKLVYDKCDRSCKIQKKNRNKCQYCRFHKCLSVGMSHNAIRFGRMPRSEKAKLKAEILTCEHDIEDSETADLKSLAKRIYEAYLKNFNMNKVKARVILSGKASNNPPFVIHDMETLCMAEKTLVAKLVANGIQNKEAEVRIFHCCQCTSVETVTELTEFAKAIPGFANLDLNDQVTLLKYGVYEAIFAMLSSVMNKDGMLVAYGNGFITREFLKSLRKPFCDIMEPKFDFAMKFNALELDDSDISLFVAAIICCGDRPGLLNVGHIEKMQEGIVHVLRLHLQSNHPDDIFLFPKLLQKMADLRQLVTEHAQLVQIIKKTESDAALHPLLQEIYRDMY
# METHOD_DESCRIPTION: Antagonist activity at human PPAR-alpha assessed as inhibition of GW7647-induced effect after overnight incubation by cell-based luciferase reporter gene assay
MEASUREMENT_NAME: log10(IC50) (log10 of the value in nM)
Recall that a logarithmic scale is used here: each number is log10 of IC50 in nM.

Worked set:
COMPOUND_STRING: CCn1c(CCCc2ccc(OC(C)(C)C(=O)NS(=O)(=O)C3CC3)cc2)nn(Cc2ccc(C(C)(C)C)cc2)c1=O
log10(IC50): 0.82

COMPOUND_STRING: CCn1c(CCCc2ccc(-c3ccc(NS(=O)(=O)c4ccccc4)cn3)cc2)nn(Cc2ccc(C(C)(C)C)cc2)c1=O
log10(IC50): 1.89

COMPOUND_STRING: CCn1c(CCCc2ccc(OC(C)(C)C(=O)NS(=O)(=O)c3ccc(C(F)(F)F)cc3)cc2)nn(Cc2ccc(C(C)(C)C)cc2)c1=O
log10(IC50): 1.53

I'd like to know its log10(IC50). The molecule in question is CCn1c(CCCc2ccc(OC(C)(C)C(=O)NS(=O)(=O)C3=CCOC=C3)cc2)nn(Cc2ccc(C(C)(C)C)cc2)c1=O
1.62

I'd like to know its log10(IC50). The molecule in question is CCn1c(CCCc2ccc(-c3ccc(NS(=O)(=O)Cc4ccccc4)cc3)cc2)nn(Cc2ccc(C(C)(C)C)cc2)c1=O
2.49

---

# METHOD_DESCRIPTION: Metabolic stability in mouse plasma assessed as compound remaining at 1 uM after 24 hrs by LC-MS/MS analysis
# Type: ADME, cell-free
# TEST_CONTEXT: read-out: Stability
MEASUREMENT_NAME: remaining at 24 h, 1 µM (%)
Report as a plain number; the unit % is understood.

Worked set:
COMPOUND_STRING: CCn1c(CCCc2ccc(-c3ncc(NS(=O)(=O)c4ccccc4)cn3)cc2)nn(Cc2ccc(C(C)(C)C)cc2)c1=O
remaining at 24 h, 1 µM, %: 119
//
COMPOUND_STRING: CCn1c(CCCc2ccc(OC(C)(C)C(=O)NS(=O)(=O)c3ccc(C(C)C)cc3)cc2)nn(Cc2ccc(C(C)(C)C)cc2)c1=O
remaining at 24 h, 1 µM, %: 2.7
//
COMPOUND_STRING: CCn1c(CCCc2ccc(-c3ccc(NS(=O)(=O)c4ccc(-c5ccc(OC)cc5)cc4)cc3)cc2)nn(Cc2ccc(C(C)(C)C)cc2)c1=O
remaining at 24 h, 1 µM, %: 119
//
COMPOUND_STRING: CCn1c(CCCc2ccc(-c3ccc(NS(C)(=O)=O)cn3)cc2)nn(Cc2ccc(C(C)(C)C)cc2)c1=O
remaining at 24 h, 1 µM, %: 105

I'd like to know its remaining at 24 h, 1 µM. The compound in question is CCn1c(CCCc2ccc(OC(C)(C)C(=O)NS(=O)(=O)c3ccc(C(F)(F)F)cc3)cc2)nn(Cc2ccc(C(C)(C)C)cc2)c1=O
53.7

I'd like to know its remaining at 24 h, 1 µM. The compound in question is CCn1c(CCCc2ccc(OC(C)(C)C(=O)NS(=O)(=O)c3cccnc3)cc2)nn(Cc2ccc(C(C)(C)C)cc2)c1=O
0.2

Provenance of the data: ChEMBL document CHEMBL3259631
